Molecular target: UniProt:P15538
Experiment: G-402 cellular enzyme assay, human CYP11B1 (cortisol release)
Conditions: G-402 cells expressing human CYP11B1; 1 μM Deoxycortisol; cortisol in supernatant after 16 h
Recorded measurements of EC50, one per entry
Provide the reading as a plain figure in nM.

INPUT_SMILES | EC50 (nM)
COc1ccncc1C(=O)N1CC2(C1)CN(c1cncc(N3C(=O)c4ccc(Cl)cc4C3(C)C)c1)C2 | 17.2
Cn1ccnc1C(=O)N1CC2(C1)CN(c1cncc(N3C(=O)c4ccc(C#N)cc4C3(C)C)c1)C2 | 4.76
Cn1cc(C(=O)N2CCC3(CC2)CN(c2cncc(N4C(=O)c5ccc(Cl)cc5C4(C)C)c2)C3)cn1 | 18.8

Next compound, please.
Problem: Give recorded EC50. Cc1ncoc1C(=O)N1CC2(C1)CN(c1cncc(N3C(=O)c4ccc(Cl)cc4C3(C)C)c1)C2
Solution: 28.4

---

Molecular target: human CYP11B1 (Homo sapiens (Human))
Experiment: G-402 cellular enzyme assay, human CYP11B1 (cortisol release)
Conditions: G-402 cells expressing human CYP11B1; 1 μM Deoxycortisol; cortisol in supernatant after 16 h
PROPERTY_MEASURED: pEC50
Kindly note that pEC50 refers to -log10 of the concentration in mol/L and answer with the value alone.

Here is how some compounds turned out for pEC50.
COMPOUND | EXPERIMENTAL_SYSTEM | pEC50
CCn1cc(C(=O)N2CC3(C2)CN(c2cncc(N4C(=O)c5ccc(C#N)cc5C4(C)C)c2)C3)cn1 [Example 9] | human CYP11B1 (Homo sapiens (Human)) | 7.61
CC1(C)c2cc(Cl)ccc2C(=O)N1c1cncc(N2CC3(CN(C(=O)c4cncnc4)C3)C2)c1 [Example 40] | human CYP11B1 (Homo sapiens (Human)) | 7.92
Cn1cc(C(=O)N2CC3(C2)CN(c2cncc(N4CCc5cc(Cl)ccc5C4=O)c2)C3)cn1 [Example 53] | human CYP11B1 (Homo sapiens (Human)) | 7.84
Cn1cc(C(=O)N2CC3(C2)CN(c2cncc(N4C(=O)c5ccc(Cl)cc5C4(C)C)c2)C3)cn1 [Example 1] | human CYP11B1 (Homo sapiens (Human)) | 7.95
CCn1cc(C(=O)N2CC3(CCN(c4cncc(N5C(=O)c6ccc(Cl)cc6C5(C)C)c4)CC3)C2)cn1 [Example 60] | human CYP11B1 (Homo sapiens (Human)) | 9.05

We next turn to a different compound, shown below.
Problem: Param request: pEC50 | system human CYP11B1 (Homo sapiens (Human)) | item Cn1cc(C(=O)N2CC3(CCN(c4cncc(N5C(=O)c6ccc(Cl)cc6C5(C)C)c4)CC3)C2)cn1 [Example 59]
Solution: 9.09

---

Target: human CYP11B2 (Homo sapiens (Human))
Sequence (P19099 25-503): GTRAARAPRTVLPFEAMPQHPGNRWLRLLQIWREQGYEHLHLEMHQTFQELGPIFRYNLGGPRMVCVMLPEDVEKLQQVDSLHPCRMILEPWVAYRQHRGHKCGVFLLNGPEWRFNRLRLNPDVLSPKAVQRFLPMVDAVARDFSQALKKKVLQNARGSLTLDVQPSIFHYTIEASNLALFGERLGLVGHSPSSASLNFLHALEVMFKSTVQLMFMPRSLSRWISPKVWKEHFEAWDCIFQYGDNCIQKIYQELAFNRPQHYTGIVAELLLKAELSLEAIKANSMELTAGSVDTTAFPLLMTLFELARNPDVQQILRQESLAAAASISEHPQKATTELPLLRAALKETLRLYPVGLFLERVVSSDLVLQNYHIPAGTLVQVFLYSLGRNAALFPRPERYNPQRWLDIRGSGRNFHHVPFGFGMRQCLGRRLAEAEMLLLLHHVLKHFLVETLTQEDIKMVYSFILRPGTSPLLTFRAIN
Assay: G-402 cellular enzyme assay, human CYP11B2 (aldosterone release)
Type: cell-based
Conditions: G-402 cells expressing human CYP11B2; 1 μM Deoxycorticosterone; aldosterone in supernatant after 16 h
A collection of compounds and their measured EC50
Just so you know, I need the unit written after the number.

Consider the reported EC50 for these compounds:
INPUT_SMILES | PROPERTY_MEASURED | RESULT
Cn1cc(C(=O)N2CC3(C2)CN(c2cncc(N4C(=O)c5ccc(Cl)cc5C4(C)C)c2)C3)c(C(F)F)n1 | EC50 | 0.333 nM
Cc1nocc1C(=O)N1CC2(C1)CN(c1cncc(N3C(=O)c4ccc(Cl)cc4C3(C)C)c1)C2 | EC50 | 0.104 nM
Cc1ccnc(C)c1C(=O)N1CC2(C1)CN(c1cncc(N3C(=O)c4ccc(Cl)cc4C3(C)C)c1)C2 | EC50 | 0.111 nM
CC(C)n1cc(C(=O)N2CC3(C2)CN(c2cncc(N4C(=O)c5ccc(C#N)cc5C4(C)C)c2)C3)cn1 | EC50 | 0.0155 nM
Cn1ccnc1C(=O)N1CC2(C1)CN(c1cncc(N3C(=O)c4ccc(C#N)cc4C3(C)C)c1)C2 | EC50 | 0.0252 nM
CC1(C)c2cc(Cl)ccc2C(=O)N1c1cncc(N2CC3(CN(C(=O)c4cnccc4C#N)C3)C2)c1 | EC50 | 0.0248 nM

Could you now look at the following compound, please?
Problem: State its EC50: Cc1ncc(Cl)c(C(=O)N2CC3(C2)CN(c2cncc(N4C(=O)c5ccc(Cl)cc5C4(C)C)c2)C3)n1
Solution: 0.504 nM

---

Target: human CYP11B1 (Homo sapiens (Human), UniProt P15538)
Sequence (P15538 25-503): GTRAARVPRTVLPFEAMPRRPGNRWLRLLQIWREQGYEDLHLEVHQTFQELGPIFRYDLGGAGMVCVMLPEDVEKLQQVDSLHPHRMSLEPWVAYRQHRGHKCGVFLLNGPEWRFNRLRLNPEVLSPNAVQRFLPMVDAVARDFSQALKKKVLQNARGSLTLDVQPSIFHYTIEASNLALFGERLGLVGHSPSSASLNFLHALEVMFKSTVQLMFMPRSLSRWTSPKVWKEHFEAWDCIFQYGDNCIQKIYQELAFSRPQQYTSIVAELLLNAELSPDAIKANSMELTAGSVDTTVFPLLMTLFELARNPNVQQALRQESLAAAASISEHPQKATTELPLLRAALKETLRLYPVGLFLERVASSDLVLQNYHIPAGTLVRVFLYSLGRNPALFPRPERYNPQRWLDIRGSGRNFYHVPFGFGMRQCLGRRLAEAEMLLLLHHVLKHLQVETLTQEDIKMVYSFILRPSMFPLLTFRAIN
Test: G-402 cellular enzyme assay, human CYP11B1 (cortisol release)
Details: G-402 cells expressing human CYP11B1; 1 μM Deoxycortisol; cortisol in supernatant after 16 h
Entries and their EC50
Write it as a number; the unit µM goes unstated.

The following compounds have reported results that may help.
COMPOUND | UNITS_TEXT | EC50
CCn1cc(C(=O)N2CC3(C2)CN(c2cncc(N4C(=O)c5ccc(Cl)cc5C4(C)C)c2)C3)cn1 | µM | 0.0111
CC1c2cc(Cl)ccc2C(=O)N1c1cncc(N2CC3(CN(C(=O)c4cnn(C)c4)C3)C2)c1 (stereo not shown) | µM | 0.0167
Cn1nccc1C(=O)N1CC2(C1)CN(c1cncc(N3C(=O)c4ccc(Cl)cc4C3(C)C)c1)C2 | µM | 0.0157

Problem: Determine its reported EC50: COc1nccnc1C(=O)N1CC2(C1)CN(c1cncc(N3C(=O)c4ccc(Cl)cc4C3(C)C)c1)C2
Solution: 0.0161
